- System: Escherichia coli strain BL21
- runDescription: Chronoamperometric detection of E. coli with electrochemically active reporters in three-electrode electrochemical systems (ECs)
- Format: cell-based
- condition: 37° C.; inoculum 5 × 10^3 CFU mL^−1; chronoamperometry in ECs; reporter 50 μM
Please go through the items and note down their Detection time (±std dev).

// query Report the value of Detection time (±std dev) obtained on Escherichia coli strain BL21 for O=c1ccc2nc3ccc(O[C@@H]4O[C@H](CO)[C@H](O)[C@H](O)[C@H]4O)cc3oc-2c1 [ResGal, resorufin-β-d-galactopyranoside] .
// result 477(±23) minutes

// query Report the value of Detection time (±std dev) obtained on Escherichia coli strain BL21 for O=c1ccc2nc3ccc(O[C@@H]4O[C@H](CO)[C@@H](O)[C@H](O)[C@H]4O)cc3oc-2c1 [ResGlu, resorufin-β-d-glucopyranoside] .
// result 397(±52) minutes

// query Report the value of Detection time (±std dev) obtained on Escherichia coli strain BL21 for O=C1C=C(O[C@@H]2O[C@H](CO)[C@@H](O)[C@H](O)[C@H]2O)C(=O)c2ccccc21 [2H14NQGlu] .
// result 187(±31) minutes

// query Report the value of Detection time (±std dev) obtained on Escherichia coli strain BL21 for O=C1C=C(O[C@@H]2O[C@H](CO)[C@H](O)[C@H](O)[C@H]2O)C(=O)c2ccccc21 [2H14NQGal] .
// result 359(±13) minutes

Numbers sourced from patent US10179927B2.
